Overview of recorded remaining activity at 1 µM for various compounds
target: CDK6/CyclinD3 (Homo sapiens, UniProt Q00534); assay: ADP Glo kinase assay, CDK6/CyclinD3; assay type: biochemical; conditions: compound at 1 μM, read-out: Residual enzymatic activity (%) at 1 μM, CDK6 D3
Sequence (Q00534 whole entry, species assumed): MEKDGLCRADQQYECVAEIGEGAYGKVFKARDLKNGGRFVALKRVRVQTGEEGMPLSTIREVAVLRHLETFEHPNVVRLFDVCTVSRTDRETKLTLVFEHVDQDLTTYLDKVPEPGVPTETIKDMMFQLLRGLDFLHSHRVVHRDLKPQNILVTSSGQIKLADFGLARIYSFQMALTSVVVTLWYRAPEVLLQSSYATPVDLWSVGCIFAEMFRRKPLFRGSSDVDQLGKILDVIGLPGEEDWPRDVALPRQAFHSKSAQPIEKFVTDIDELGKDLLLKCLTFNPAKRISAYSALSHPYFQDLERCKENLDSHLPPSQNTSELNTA
Sequence (P30281 whole entry partner, species assumed): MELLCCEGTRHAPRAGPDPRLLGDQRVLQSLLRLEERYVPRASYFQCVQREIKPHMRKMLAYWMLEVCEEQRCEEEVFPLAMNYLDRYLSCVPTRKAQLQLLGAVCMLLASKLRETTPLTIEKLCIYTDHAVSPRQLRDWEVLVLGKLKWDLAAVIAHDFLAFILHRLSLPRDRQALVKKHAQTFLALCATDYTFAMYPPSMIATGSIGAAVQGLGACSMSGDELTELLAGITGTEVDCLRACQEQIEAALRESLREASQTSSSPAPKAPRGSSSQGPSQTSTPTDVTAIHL
Don't forget the unit after the value.

Illustrative cases are given below, each with its answer.
[[record]]
compound = "CN1CCN(Cc2ccc(Nc3nccc(-c4cnc5ccc(-c6ccccc6)cn45)n3)cn2)CC1"
property_measured = "remaining activity at 1 µM"
value_measured = "64%"

[[record]]
compound = "COc1ccc(-c2ccc3ncc(-c4ccnc(Nc5ccc(N6CCN(C)CC6)nc5)n4)n3c2)cn1"
property_measured = "remaining activity at 1 µM"
value_measured = "46%"

[[record]]
compound = "CN1CCN(c2ccc(Nc3nccc(-c4cnc5ccc(-c6cccnc6)cn45)n3)nc2)CC1 [Comparator compound C, reference compound]"
property_measured = "remaining activity at 1 µM"
value_measured = "87%"

[[record]]
compound = "CC(=O)N1CCN(c2ccc(Nc3nccc(-c4cnc5ccc(Br)cn45)n3)cn2)CC1"
property_measured = "remaining activity at 1 µM"
value_measured = "55%"

[[record]]
compound = "CN1CCN(c2ccc(Nc3nccc(-c4cnc5ccc(-c6cnn(C(F)F)c6)cn45)n3)cn2)CC1"
property_measured = "remaining activity at 1 µM"
value_measured = "57%"


Reported remaining activity at 1 µM for COC(=O)c1ccc(Nc2nccc(-c3cnc4ccc(Br)cn34)n2)cn1 was 99%

remaining activity at 1 µM in this record for CN1CCN(c2ccc(Nc3nccc(-c4cnc5ccc(C(F)(F)F)cn45)n3)cn2)CC1 : 34%

Lookup result for CC(=O)N1CCN(c2ccc(Nc3nccc(-c4cnc5ccc(-c6cccc7[nH]ccc67)cn45)n3)cn2)CC1 ; measured remaining activity at 1 µM: 38%

Measured remaining activity at 1 µM, CCS(=O)(=O)N1CCN(c2ccc(Nc3nccc(-c4cnc5ccc(-c6ccc(F)nc6)cn45)n3)cn2)CC1 : 72%

// CN1CCN(c2ccc(Nc3nccc(-c4cnc5ccc(-c6cnc(N)nc6)cn45)n3)cn2)CC1 : remaining activity at 1 µM value = 46%

====

# key: entry, value: remaining activity at 1 µM
biological target: CDK1/CyclinB (Homo sapiens, UniProt P06493); assay: ADP Glo kinase assay, CDK1/CyclinB; format: biochemical; settings: compound at 1 μM, read-out: Residual enzymatic activity (%) at 1 μM, CDK1 B
Sequence (P06493 whole entry, species assumed): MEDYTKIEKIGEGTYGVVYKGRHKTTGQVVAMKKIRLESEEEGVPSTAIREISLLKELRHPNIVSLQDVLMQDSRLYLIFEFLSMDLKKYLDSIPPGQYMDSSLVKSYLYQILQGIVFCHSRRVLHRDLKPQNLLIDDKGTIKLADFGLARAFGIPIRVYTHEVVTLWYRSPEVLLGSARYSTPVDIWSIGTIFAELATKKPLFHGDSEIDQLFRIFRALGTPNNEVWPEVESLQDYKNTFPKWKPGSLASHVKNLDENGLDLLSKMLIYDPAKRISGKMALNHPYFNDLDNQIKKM
Sequence (P14635 whole entry partner, species assumed): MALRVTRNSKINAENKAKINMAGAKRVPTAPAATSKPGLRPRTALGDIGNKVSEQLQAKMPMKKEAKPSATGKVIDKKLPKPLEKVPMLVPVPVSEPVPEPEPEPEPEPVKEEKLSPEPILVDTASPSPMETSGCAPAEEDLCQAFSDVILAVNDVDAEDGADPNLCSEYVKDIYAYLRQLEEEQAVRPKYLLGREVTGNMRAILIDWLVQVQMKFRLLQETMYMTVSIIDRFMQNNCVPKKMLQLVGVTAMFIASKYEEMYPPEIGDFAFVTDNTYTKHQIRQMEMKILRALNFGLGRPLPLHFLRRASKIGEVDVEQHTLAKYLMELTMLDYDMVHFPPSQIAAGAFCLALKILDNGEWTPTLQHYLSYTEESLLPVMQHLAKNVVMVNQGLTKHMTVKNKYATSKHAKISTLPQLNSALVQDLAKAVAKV
Your answer should be a plain number; it is taken to be in %.

Please review the following examples before continuing.
[[record]]
compound = "CN1CCN(c2ccc(Nc3nccc(-c4cnc5ccc(-c6ccccc6)cn45)n3)nc2)CC1 [Comparator compound A, reference compound]"
value_measured = 87

[[record]]
compound = "CC(=O)N1CCN(c2ccc(Nc3nccc(-c4cnc5ccc(-c6cccc7[nH]ccc67)cn45)n3)cn2)CC1 [Compound 49]"
value_measured = 94

[[record]]
compound = "CC(C)N1CCN(c2ccc(Nc3nccc(-c4cnc5ccc(-c6cncnc6)cn45)n3)cn2)CC1 [Compound 53]"
value_measured = 71


The recorded remaining activity at 1 µM for entry CCCNc1ccc(Nc2nccc(-c3cnc4ccc(-c5ccccc5)cn34)n2)cn1 [Compound 75] equals 89

====

Reported pKi values for a set of compounds
target: CDK1/CyclinB (Homo sapiens, UniProt P06493); test: ADP Glo kinase assay, CDK1/CyclinB; conditions: Km ATP, read-out: Enzymatic inhibition, Ki, CDK1 B
Scale explanation: pKi corresponds to minus log10 of a concentration expressed in moles per litre.

Worked cases, answers included:
[[record]]
smiles_data = "CN1CCN(c2ccc(Nc3nccc(-c4cnc5ccc(-c6cnn(C)c6)cn45)n3)cn2)CC1"
value_measured = 6.19

[[record]]
smiles_data = "CS(=O)(=O)N1CCN(c2ccc(Nc3nccc(-c4cnc5ccc(-c6cccs6)cn45)n3)cn2)CC1"
value_measured = 6.20

[[record]]
smiles_data = "Cc1cnc(Nc2ccc(N3CCN(C)CC3)nc2)nc1-c1cnc2ccccn12"
value_measured = 6.30


Item: Cc1cnc(Nc2ccc(N3CCNCC3)nc2)nc1-c1cnc2ccccn12 | pKi: 6.30

Entry Brc1ccc2ncc(-c3ccnc(Nc4ccc(N5CCNCC5)nc4)n3)n2c1 — recorded pKi = 7.11

Recorded pKi (compound CC(=O)N1CCN(c2ccc(Nc3nccc(-c4cnc5ccc(-c6cn[nH]c6)cn45)n3)cn2)CC1 ): 6.94

What the record says about CN1CCN(c2ccc(Nc3nccc(-c4cnc5ccc(-c6ccccc6)cn45)n3)cn2)CC1 : pKi is 6.58

// Cc1cnc(Nc2ccc(N3CCOCC3)nc2)nc1-c1cnc2ccccn12 : pKi value = 6.82

Documented pKi of CC(C)N1CCN(c2ccc(Nc3nccc(-c4cnc5ccc(Cl)cn45)n3)cn2)CC1 : 6.82

Sure, the documented pKi for CN1CCN(c2ccc(Nc3nccc(-c4cnc5ccc(C(F)(F)F)cn45)n3)cn2)CC1 is 6.70

Form: compound = Fc1cnc(Nc2cccnc2)nc1-c1cnc2ccccn12 ; pKi = 8.70

# pKi of CS(=O)(=O)N1CCN(c2ccc(Nc3nccc(-c4cnc5ccc(Br)cn45)n3)cn2)CC1 = 6.82

CC(C)N1CCN(c2ccc(Nc3nccc(-c4cnc5ccc(Br)cn45)n3)cn2)CC1 has a reported pKi of 6.84

CN1CCN(c2ccc(Nc3nccc(-c4cnc5ccccn45)n3)cn2)CC1 yielded pKi of 6.85

The measured values listed here are drawn from patent US20240158391A1.
